These data points were gathered from PubChem BioAssay (NCI).

# Tested on: K-562 leukemia
# MEASUREMENT_NOTES: NCI tumour cell line growth inhibition, 48 h
RESULT_TYPE: GI50

A selection of reference data follows.
COMPOUND: Nc1n[nH]c2ccc([C@@H]3Nc4ccc5cn[nH]c5c4[C@H]4C5CCC(C5)[C@@H]34)cc12 (some centres undefined)
MEASUREMENT_TARGET: K-562 leukemia
GI50: 252 nM
//
COMPOUND: Cc1c(C(=O)c2ccccc2)[n+](=O)c2cc(F)c(F)cc2n1[O-]
MEASUREMENT_TARGET: K-562 leukemia
GI50: 1970 nM
//
COMPOUND: COCCCC(NC(=O)C(CC(C)C)NC(=O)OCc1ccc(OC)cc1)C(=O)OC (centres undefined)
MEASUREMENT_TARGET: K-562 leukemia
GI50: 36 µg/mL

Now look at this one.
(Q) Requested read-out GI50, target or system K-562 leukemia, entry CC(=O)ON=C1C=CC(=C(C#N)c2ccccc2)C=C1
(A) 556 nM
